The values you see were collected from patent US20080214445A1.

# Tested on: P-glycoprotein and Breast-Cancer Resistance Protein (suggested by experiments in mdr1a1b(-/-) mice)
# assayOverview: in vivo
# measurementContext: FVB, mouse
measure: Km

Noted for Cc1ccc(NC(=O)c2ccc(CN3CCN(C)CC3)cc2)cc1Nc1nccc(-c2cccnc2)n1 [STI571] : its Km reads 5 to 10 µM

* * *

# assayOverview: in vivo
# measurementContext: Hanover Wistar, rat, iv, 12.5 mg/kg, Concentration of STI571 in brain, individual data
measure: concentration at 1 h (ng/g)
Numbers only, in ng/g.

Entry Cc1ccc(NC(=O)c2ccc(CN3CCN(C)CC3)cc2)cc1Nc1nccc(-c2cccnc2)n1 [STI571] ; concentration at 1 h = 540
